# method_summary: Volume of distribution in dog at 0.5 mg/kg, iv
# Assay type: ADME, organism-based, Canis lupus familiaris
# setup_conditions: in vivo
quantity_measured: Vd (L/kg)
Give the value in L/kg but do not write L/kg after it.

Could you tell me which Vd is on file for "Cc1ccc(-n2nccn2)c(C(=O)N2CCCO[C@H]2Cn2ccc(-c3ccc(F)cn3)n2)c1" ?
0.294

###

# method_summary: Half-life in Sprague-Dawley rat at 2 mg/kg, iv
# Assay type: ADME, organism-based
# setup_conditions: in vivo
quantity_measured: half-life
Write the figure, then the unit, nothing else.

# half-life lookup, item "CCN(CCn1ccc(-c2ccc(F)cn2)n1)C(=O)c1ccccc1-n1nccn1"
24.7 min
